Biological target: T1, CRBN, Q96SW2;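 further: pooled lentiviral library of zinc finger degron-EGFP fusions in mCherry-positive Jurkat cells, FACS-sorted after compound exposure, with degron abundance counted by next-generation sequencing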
T1 chain: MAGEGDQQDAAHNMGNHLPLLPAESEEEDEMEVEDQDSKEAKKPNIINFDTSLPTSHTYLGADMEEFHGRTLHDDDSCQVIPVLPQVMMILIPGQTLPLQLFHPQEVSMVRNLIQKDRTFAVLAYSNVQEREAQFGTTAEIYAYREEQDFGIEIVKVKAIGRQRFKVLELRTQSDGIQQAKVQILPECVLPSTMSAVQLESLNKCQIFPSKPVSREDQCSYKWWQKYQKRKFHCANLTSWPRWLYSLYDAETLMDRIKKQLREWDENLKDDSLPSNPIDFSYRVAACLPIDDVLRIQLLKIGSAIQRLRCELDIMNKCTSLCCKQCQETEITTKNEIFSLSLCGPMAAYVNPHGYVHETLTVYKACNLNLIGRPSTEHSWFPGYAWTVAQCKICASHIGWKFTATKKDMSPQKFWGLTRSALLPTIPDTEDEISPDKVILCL
Assay: log2 fold change of degron read counts, EGFP-low vs EGFP+ sorted cells (limma voom), compound-induced degradation; higher = more compound-induced degradation of the degron-EGFP fusion; degrons are variants of IKZF1/3 zinc finger 2; compound dose not given here
Conditions: Jurkat; 18 h; compound: thalidomide
Over roughly 8,300 sequences, “log2 fold change of degron read counts, EGFP-low vs EGFP+ sorted cells (limma voom), compound-induced degradation” has its median near -1.1; the highest 2% begin near 3.2. The list comes from a sample in which the highest values are over-represented; it also holds close analogues and randomly drawn sequences.

>  <Entry Sequence>
FACEICGAAFTQKGNLLRHIKL [46F_47A_49E_50I_52G_53A_54A_55F_67L_, Q9UKT9]

>  <log2 fold change of degron read counts>
1.38

$$$$
>  <Entry Sequence>
FYCDVCGAIFTQKGNLLRHIKL [46F_47Y_49D_50V_52G_53A_54I_55F_67L_, Q9UKT9]

>  <log2 fold change of degron read counts>
-1.86

$$$$
>  <Entry Sequence>
FRCEICGAAFTQKGNLLRHIKL [46F_47R_49E_50I_52G_53A_54A_55F_67L_, Q9UKT9]

>  <log2 fold change of degron read counts>
2.49

$$$$
>  <Entry Sequence>
FICNQCGRHFTQKGNLLRHIKL [46F_47I_49N_50Q_52G_53R_54H_55F_67L_, Q9UKT9]

>  <log2 fold change of degron read counts>
-2.39

$$$$
